Values were extracted from patent US10905757B2.

I'd be grateful if you could share measured IFNγ (positive/total) for these entries.
# System: PBMC from HIV+ subjects
# TEST NAME: IFNγ ELISpot, PBMC from HIV+ subjects
# Format: cell-based, human
# DETAILS: positive responses over total tested; F3 responders (H3 responders for H3-3)

Task: Give the measured IFNγ (positive/total) for FIV F3-3 (KKKSGKWRMLIDFRV)
Result: 13/13

Task: Name the recorded IFNγ (positive/total) of the item FIV F3-3m2 (KKKDSGKWRMLIDFRV) in your answer.
Result: 7/9

Task: Consider the substance FIV F3-3 (KV15) (KKKSGKWRMLIDFRV) and give its recorded IFNγ (positive/total).
Result: 13/13

Task: Given the substance CAEV & MVV (KKKSGKWRMLIDFRE) , write its reported IFNγ (positive/total).
Result: 1/9

Task: Return IFNγ (positive/total) for the following substance: FIV 3-3 (KR9) (KWRMLIDFR)
Result: 1/9

Task: Return reported IFNγ (positive/total). Input substance: FIV F3-3m1 (KKKDSGKWRMLIDFR)
Result: 0/9

Task: Supply recorded IFNγ (positive/total) for FIV F3-3m5 (KKKSGKWRKLIDFRV) here.
Result: 0/9

Task: Identify the reported IFNγ (positive/total) for the following entry. FIV 3-3 (WV9) (WRMLIDFRV)
Result: 8/11

Task: Fill in IFNγ (positive/total) for record FIV F3-3m6 (KKKSTKWRMLIDFRV)
Result: 7/9

Task: Please list IFNγ (positive/total) recorded for the substance FIV F3-3m3 (KKKSGKWRMLVDFRV)
Result: 0/9

Task: Respond only with IFNγ (positive/total) recorded for FIV F3-3m4 (KKKSTKWRKLIDFRV)
Result: 0/9
